# credit: the supplement of paper PMC10567573

The variants listed here are annotated with their protein stability index.
B1: PTPRD (parent)
chain: FICQATGDPRPKIVWNKKGKKVSN

variants of: B1; experiment: protein stability index of a GFP-peptide fusion (GPS, HEK-293T) (PSI 1-6); higher = more stable; conditions: c terminus: a fixed tail appended;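 note: lentivirally expressed fusions sorted by FACS into six bins by GFP to DsRed ratio, PSI derived from sequencing read proportions per bin multiplied by bin number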
Please reply with the value in numeric form only.

mutationlabel=K20D numericreadout=1.64

Could you share which protein stability index value was measured for `S23C` ?
2.69

Could you share which protein stability index value was measured for `G7I` ?
2.01

Could you share which protein stability index value was measured for `I13G` ?
2.6
